All figures here come from ChEMBL document CHEMBL1201862.

# TESTED ON: Fatty acid synthase (Homo sapiens)
# Sequence (P49327 whole entry): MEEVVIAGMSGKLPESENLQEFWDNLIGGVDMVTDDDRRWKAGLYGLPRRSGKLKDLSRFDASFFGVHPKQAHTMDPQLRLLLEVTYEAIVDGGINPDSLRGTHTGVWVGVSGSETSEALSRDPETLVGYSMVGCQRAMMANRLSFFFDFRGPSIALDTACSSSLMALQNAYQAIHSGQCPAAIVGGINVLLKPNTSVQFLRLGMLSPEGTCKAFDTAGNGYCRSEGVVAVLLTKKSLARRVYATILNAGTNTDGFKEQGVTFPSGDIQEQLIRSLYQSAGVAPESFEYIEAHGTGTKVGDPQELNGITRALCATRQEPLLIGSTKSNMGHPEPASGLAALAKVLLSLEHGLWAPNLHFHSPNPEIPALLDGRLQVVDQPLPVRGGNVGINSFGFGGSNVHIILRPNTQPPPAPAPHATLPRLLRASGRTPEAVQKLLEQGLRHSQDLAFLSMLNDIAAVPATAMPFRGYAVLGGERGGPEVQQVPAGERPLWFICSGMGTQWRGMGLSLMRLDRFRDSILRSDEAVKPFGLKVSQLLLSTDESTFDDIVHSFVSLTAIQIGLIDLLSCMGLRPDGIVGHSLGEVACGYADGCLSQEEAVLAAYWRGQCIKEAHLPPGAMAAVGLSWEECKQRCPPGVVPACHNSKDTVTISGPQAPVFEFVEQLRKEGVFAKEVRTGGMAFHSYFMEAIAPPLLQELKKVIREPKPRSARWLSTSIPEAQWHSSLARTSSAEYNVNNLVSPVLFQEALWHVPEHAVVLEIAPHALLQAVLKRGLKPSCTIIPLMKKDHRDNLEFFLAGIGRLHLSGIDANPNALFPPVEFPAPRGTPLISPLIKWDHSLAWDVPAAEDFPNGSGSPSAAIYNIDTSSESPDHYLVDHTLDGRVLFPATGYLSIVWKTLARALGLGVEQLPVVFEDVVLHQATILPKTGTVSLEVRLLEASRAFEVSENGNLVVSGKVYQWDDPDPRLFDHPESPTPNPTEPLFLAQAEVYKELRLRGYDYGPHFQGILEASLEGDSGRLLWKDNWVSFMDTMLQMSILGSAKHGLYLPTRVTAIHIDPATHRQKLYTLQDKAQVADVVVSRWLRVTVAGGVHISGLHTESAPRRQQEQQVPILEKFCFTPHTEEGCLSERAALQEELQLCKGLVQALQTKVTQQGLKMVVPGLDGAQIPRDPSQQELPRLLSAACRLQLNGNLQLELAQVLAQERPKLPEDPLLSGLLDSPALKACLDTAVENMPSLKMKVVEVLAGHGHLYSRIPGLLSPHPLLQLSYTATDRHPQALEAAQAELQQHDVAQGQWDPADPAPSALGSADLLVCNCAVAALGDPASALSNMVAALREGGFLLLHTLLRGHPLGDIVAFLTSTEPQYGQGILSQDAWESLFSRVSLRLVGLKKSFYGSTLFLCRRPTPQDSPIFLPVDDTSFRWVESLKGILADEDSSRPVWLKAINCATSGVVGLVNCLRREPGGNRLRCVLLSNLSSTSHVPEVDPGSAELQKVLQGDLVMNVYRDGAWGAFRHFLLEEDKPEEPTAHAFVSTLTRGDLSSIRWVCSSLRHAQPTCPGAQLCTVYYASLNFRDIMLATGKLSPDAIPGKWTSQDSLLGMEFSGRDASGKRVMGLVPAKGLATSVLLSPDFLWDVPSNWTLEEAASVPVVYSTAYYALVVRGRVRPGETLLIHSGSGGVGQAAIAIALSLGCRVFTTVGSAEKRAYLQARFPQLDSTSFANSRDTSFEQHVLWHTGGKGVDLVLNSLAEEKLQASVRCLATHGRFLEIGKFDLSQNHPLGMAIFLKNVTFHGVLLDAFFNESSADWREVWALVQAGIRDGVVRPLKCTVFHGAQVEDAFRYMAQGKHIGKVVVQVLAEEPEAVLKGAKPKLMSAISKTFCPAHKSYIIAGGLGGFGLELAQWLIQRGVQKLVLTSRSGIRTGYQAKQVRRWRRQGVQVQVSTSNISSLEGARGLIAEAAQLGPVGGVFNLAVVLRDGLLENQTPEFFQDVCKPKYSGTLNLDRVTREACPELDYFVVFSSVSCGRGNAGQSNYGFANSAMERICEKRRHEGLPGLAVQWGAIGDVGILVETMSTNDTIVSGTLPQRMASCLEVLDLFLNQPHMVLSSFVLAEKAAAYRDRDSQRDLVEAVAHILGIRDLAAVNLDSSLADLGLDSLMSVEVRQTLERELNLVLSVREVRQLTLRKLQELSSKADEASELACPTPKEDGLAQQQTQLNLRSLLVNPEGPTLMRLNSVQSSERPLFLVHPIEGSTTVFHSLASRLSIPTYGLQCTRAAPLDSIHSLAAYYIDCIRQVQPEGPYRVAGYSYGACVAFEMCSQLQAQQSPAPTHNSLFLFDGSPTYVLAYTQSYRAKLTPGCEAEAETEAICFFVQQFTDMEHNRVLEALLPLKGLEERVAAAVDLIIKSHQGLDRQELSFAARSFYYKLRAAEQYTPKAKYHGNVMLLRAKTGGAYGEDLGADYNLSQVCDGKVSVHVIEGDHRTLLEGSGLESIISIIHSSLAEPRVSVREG
# TEST SUMMARY: inhibition of human FAS-TE enzyme activity – biochemical, endpoint fluorescence intensity, uHTS hits, dose response (AID 624327);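 further: fluorescence from hydrolysis of an O-methyl fluorescein acyl ester substrate by the enzyme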
# Format: functional
Active and inactive are the calls of the source. No stated cut-off is given here; in the data, active = IC50 of 20 µM or less and inactive = more.
MEASURED PROPERTY: IC50

O=C(Nc1ccc(Cc2ccncc2)cc1)c1cccc([N+](=O)[O-])c1    7.76 µM (active)
CCN(CC)C(=O)C1CCCN(c2ccc([N+](=O)[O-])cc2/C=N/NC(=O)c2ccccc2)C1 (configuration not stated)    0.645 µM (active)
O=C(CCNC(=O)c1ccc([N+](=O)[O-])cc1)NC1CCCCCC1    8.77 µM (active)

Problem: Report IC50 for COc1ccc2cc3cc(C(=O)N4CCCC(C)C4)oc3nc2c1 (configuration not stated)
Solution: 6.22 µM (active)

Problem: Report IC50 for O=C(Nc1ccc(Nc2ccccc2)cc1)c1cc([N+](=O)[O-])ccc1Cl
Solution: 11.1 µM (active)
